Data provenance is paper PMC3094704.

- Test system: high-affinity rolipram binding sites (HARBSs) of guinea pig brain cell membranes
- ASSAY PROTOCOL: Displacement of [3H]-rolipram (PDE4H determination)
- RECORDED CONDITIONS: HARBSs of guinea pig brain cell membranes
MEASURED ENDPOINT: EC50 (nM)
I only need the number, in nM, no unit after it.

I'd like to know its EC50. The molecule in question is CCCCOc1cc(CC2CNC(=O)N2)ccc1OC (centres unmarked) [Ro 20-1724, reference compound]
95.8

----------
Known pKi of a selection of compounds
- TARGET ENTITY: PDE4
- ASSAY PROTOCOL: Inhibition of PDE4 activity and Lineweaver-Burk analysis
- RECORDED CONDITIONS: Lineweaver-Burk analysis, cAMP substrate; read-out: Ki on PDE isozyme 4
Note on pKi: it is the negative log10 of concentration, concentration in mol/L.

I'd like to know its pKi. The compound in question is C=C(C)[C@@H]1C[C@@]2(C)C(=CC1=O)CC[C@@H](OC(=O)/C=C\SC)[C@@H]2C [S-Petasin]
4.74

I'd like to know its pKi. The compound in question is CCCCOc1cc(CC2CNC(=O)N2)ccc1OC (centres unmarked) [Ro 20-1724, reference compound]
5.38
